- target: autophosphorylation of PASK at position Thr307 in Hek293 cells overexpressing PASK (Homo sapiens)
- Sequence (Q96RG2 with tags, fused parts or gaps): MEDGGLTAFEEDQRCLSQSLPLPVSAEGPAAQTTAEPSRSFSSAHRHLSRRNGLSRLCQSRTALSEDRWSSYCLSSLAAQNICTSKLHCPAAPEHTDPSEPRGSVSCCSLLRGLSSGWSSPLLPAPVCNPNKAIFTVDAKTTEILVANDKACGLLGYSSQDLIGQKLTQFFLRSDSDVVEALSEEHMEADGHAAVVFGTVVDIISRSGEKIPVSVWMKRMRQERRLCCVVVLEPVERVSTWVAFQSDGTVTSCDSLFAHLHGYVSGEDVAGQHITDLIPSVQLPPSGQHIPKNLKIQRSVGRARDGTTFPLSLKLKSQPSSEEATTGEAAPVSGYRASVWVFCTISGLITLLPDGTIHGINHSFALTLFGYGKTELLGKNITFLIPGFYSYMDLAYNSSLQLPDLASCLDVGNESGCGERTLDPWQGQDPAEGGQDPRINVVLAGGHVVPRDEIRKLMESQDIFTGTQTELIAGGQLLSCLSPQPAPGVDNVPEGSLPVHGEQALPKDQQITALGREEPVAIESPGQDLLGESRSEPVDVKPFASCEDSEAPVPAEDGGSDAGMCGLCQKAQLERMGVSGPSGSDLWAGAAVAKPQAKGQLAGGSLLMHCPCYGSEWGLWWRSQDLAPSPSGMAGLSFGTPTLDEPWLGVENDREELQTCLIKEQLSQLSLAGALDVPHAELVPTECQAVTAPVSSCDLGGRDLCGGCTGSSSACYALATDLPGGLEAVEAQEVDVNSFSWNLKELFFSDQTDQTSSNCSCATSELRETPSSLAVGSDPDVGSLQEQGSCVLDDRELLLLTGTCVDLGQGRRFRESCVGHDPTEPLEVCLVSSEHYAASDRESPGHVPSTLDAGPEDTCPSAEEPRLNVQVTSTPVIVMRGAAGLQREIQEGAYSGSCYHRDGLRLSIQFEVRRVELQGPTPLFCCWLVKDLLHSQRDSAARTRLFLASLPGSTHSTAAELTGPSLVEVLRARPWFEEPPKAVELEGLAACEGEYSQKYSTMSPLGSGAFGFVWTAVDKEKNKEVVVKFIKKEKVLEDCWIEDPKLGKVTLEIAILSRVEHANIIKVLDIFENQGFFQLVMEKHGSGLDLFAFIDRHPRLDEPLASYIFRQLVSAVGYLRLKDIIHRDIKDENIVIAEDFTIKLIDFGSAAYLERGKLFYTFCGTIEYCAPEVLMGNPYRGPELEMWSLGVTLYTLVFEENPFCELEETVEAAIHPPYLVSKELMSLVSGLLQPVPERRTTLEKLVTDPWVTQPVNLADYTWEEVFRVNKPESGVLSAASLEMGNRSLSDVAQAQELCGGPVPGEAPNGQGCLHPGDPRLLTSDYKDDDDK
- protocolSummary: PASK autophosphorylation ELISA assay
- protocolConditions: 24 h, ELISA readout
# IC50 per record follows

Illustrative cases are given below, each with its answer.
| molecule | measuredMetric | reported |
| --- | --- | --- |
| Cc1nn(C(F)F)c(C)c1-c1cnn2ccc(-c3ncc(C(=O)O)s3)cc12 [Cpd 50] | IC50 | > 5 µM |
| CCn1nc(C)c(-c2cnn3ccc(-c4nc(OC)c(C(=O)O)s4)cc23)c1C [Cpd 84] | IC50 | 1 to 5 µM |
| CCn1nc(C)c(-c2cnn3ccc(-c4nc(C5CC5)c(C(=O)O)s4)cc23)c1C [Cpd 38] | IC50 | 0.0001 to 0.5 µM |
| Cc1c(-c2cnn3ccc(-c4cc(C(=O)O)co4)cc23)c(C(F)(F)F)nn1C [Cpd 23] | IC50 | 0.0001 to 0.5 µM |
| COc1nn(-c2ccn3ncc(-c4c(C(F)(F)F)nn(C)c4C)c3c2)cc1C(=O)O [Cpd 78] | IC50 | 1 to 5 µM |

Query block: So what does the record say about IC50 for Cc1nn(CC(F)(F)F)c(C)c1-c1cnn2ccc(-c3cc(C(=O)O)co3)cc12 [Cpd 40] ?
Result block: 1 to 5 µM

Query block: So what does the record say about IC50 for COc1nn(-c2ccn3ncc(-c4c(C)nn(C(F)F)c4C)c3c2)cc1C(=O)O [Cpd 71] ?
Result block: > 5 µM

Query block: So what does the record say about IC50 for Cc1nn(CC(F)(F)F)c(C)c1-c1cnn2ccc(-n3cc(C(=O)O)cn3)cc12 [Cpd 62] ?
Result block: > 5 µM

Query block: So what does the record say about IC50 for CCOc1nc(-c2ccn3ncc(-c4c(C)nn(C(C)C)c4C)c3c2)sc1C(=O)O [Cpd 65] ?
Result block: 0.0001 to 0.5 µM

----------
- target: human PASK (Homo sapiens, UniProt Q96RG2)
- Construct: purchased ThermoFisher Scientific PR7013A
- Sequence (Q96RG2 whole entry): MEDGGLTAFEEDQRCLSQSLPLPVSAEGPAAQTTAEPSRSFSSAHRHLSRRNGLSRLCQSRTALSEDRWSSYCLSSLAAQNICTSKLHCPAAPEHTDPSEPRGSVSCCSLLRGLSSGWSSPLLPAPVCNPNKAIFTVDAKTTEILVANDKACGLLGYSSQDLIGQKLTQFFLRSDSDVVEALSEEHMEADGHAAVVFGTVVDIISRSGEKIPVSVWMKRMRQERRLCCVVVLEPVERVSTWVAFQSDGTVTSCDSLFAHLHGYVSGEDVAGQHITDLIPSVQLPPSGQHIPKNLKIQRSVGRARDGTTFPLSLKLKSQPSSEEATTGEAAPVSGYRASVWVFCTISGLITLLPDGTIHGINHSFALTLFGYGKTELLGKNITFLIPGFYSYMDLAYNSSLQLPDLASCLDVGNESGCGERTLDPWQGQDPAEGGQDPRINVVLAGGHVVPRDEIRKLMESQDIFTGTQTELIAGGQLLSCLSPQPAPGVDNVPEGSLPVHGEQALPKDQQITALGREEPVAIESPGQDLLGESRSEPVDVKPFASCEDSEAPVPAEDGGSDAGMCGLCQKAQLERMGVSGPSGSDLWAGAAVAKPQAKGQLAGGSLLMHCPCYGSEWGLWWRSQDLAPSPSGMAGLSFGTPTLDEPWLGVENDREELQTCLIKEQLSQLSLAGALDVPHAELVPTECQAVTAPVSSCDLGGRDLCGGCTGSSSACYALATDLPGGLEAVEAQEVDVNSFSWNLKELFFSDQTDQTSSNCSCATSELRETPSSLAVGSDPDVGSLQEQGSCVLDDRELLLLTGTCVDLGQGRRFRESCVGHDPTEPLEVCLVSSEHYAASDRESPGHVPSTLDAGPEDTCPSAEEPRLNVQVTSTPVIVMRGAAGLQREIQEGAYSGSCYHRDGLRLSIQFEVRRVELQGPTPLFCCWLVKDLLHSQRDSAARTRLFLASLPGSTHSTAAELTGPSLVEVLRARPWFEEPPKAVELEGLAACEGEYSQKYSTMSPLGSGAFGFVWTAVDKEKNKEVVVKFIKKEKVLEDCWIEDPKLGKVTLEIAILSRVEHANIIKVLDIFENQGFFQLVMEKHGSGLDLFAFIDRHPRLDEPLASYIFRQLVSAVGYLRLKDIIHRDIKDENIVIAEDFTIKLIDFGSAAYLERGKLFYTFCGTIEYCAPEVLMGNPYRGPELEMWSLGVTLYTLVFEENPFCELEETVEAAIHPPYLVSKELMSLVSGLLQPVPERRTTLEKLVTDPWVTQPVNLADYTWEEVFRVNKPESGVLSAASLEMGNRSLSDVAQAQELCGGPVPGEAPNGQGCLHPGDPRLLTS
- protocolSummary: 33P radioactive kinase assay
- Type: biochemical
- protocolConditions: 33P radioactive PASK kinase assay, 10 μM ATP, ZIPtide 1 μM
measuredMetric: IC50

Illustrative cases are given below, each with its answer.
| compound | measuredMetric | reported |
| --- | --- | --- |
| Cc1noc(C)c1-c1cnn2ccc(-c3cc(C(=O)O)c(C)o3)cc12 [Cpd 19] | IC50 | 0.01 to 10 nM |
| Cc1noc(C)c1-c1cnn2ccc(-c3nc(C4CC4)c(C(=O)O)s3)cc12 [Cpd 37] | IC50 | 0.01 to 10 nM |
| CCn1nc(C)c(-c2cnn3ccc(-c4nc(C5CC5)c(C(=O)O)s4)cc23)c1C [Cpd 38] | IC50 | 0.01 to 10 nM |
| CCOC(=O)c1coc(-c2ccn3ncc(-c4c(C)nn(C)c4C)c3c2)c1 [Cpd 6] | IC50 | 10 to 100 nM |

Query block: So what does the record say about IC50 for Cc1noc(C)c1-c1cnn2ccc(-c3cc(C(=O)O)c(C4CC4)o3)cc12 [Cpd 32] ?
Result block: 0.01 to 10 nM

Query block: So what does the record say about IC50 for Cc1nn(C)c(C)c1-c1cnn2ccc(-c3cc(C(=O)NS(C)(=O)=O)co3)cc12 [Cpd 21] ?
Result block: 10 to 100 nM

Query block: So what does the record say about IC50 for Cc1nn(CC(F)(F)F)c(C)c1-c1cnn2ccc(-c3cc(C(=O)O)co3)cc12 [Cpd 40] ?
Result block: 0.01 to 10 nM

Query block: So what does the record say about IC50 for CCOc1nc(-c2ccn3ncc(-c4c(C)nn(C)c4C)c3c2)sc1C(=O)O [Cpd 9] ?
Result block: 0.01 to 10 nM

Query block: So what does the record say about IC50 for Cn1cc(-c2cnn3ccc(-c4cc(C(=O)O)c(C(=O)Nc5ccccc5)o4)cc23)cn1 [Cpd 1] ?
Result block: 0.01 to 10 nM
